Reference source: patent US20210380703A1

Listed here: items and their measured optical density.
Molecular target: T1, Human ACVR2A (human, UniProt P27037 20-135, limits assumed); also: test concentration or dose not given here
T1 construct: also called activin receptor, type II A
T1 sequence (P27037 20-135 limits assumed): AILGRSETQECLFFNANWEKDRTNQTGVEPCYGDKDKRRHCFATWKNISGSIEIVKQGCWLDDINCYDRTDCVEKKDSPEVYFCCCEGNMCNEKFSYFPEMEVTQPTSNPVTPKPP
Test: ELISA
Value expressed in OD; do not type the unit.

Examples from the recorded data:
{"columns": ["binder", "optical density [OD]"],
 "data": [
  ["376_H11 (antibody, V domains shown, VH/VL only) VH: EVQLLESGGGLVQPGGSLRLSCAASGFTFDSYSMNWVRQAPGKGLEWVSNINYNGGYTGYADSVKGRFTISRDNSKNTLYLQMNSLRAEDTAVYYCARGANWHDTALDYWGQGTLVTVSS VL: DIQMTQSPSSLSASVGDRVTITCRASQSISRYLNWYQQKPGKAPKLLIYAVTSLASGVPSRFSGSGSGTDFTLTISSLQPEDFATYYCQQSYESPLTFGGGTKVEIK", 3.29],
  ["367_D05 (antibody, V domains shown, VH/VL only) VH: EVQLLESGGGLVQPGGSLRLSCAASGFTFSDYSMNWVRQAPGKGLEWVSSINYNGGYKSYADSVKGRFTISRDNSKNTLYLQMNSLRAEDTAVYYCARGATWHDTHLDYWGQGTLVTVSS VL: DIQMTQSPSSLSASVGDRVTITCRASQSIISYVNWYQQKPGKAPKLVIYAATSLASGVPSRFSGSGSGTDFTLTISSLQPEDFATYYCQQSYDSPLTFGGGTKVEIK", 1.26]
]}

Let us examine a further case.
stdin: Could you share which optical density value was measured for 370_C07 (antibody, V domains shown, VH/VL only) VH: EVQLLESGGGLVQPGGSLRLSCAASGFTFSSYSMNWVRQAPGKGLEWVANINYNGGYKSYADSVKGRFTISRDNSKNTLYLQMNSLRAEDTAVYYCARGATWHDTHLDYWGQGTLVTVSS VL: DIQMTQSPSSLSASVGDRVTITCRASQSILSYLNWYQQKPGKAPKLLIYAATSRHSGVPSRFSGSGSGTDFTLTISSLQPEDFATYYCQQSYESPLTFGGGTKVEIK ?
stdout: 3.35
